Entry source: patent EP0414894A1

Consider the following molecules; for each one, report its Death of flies, % Tests in laboratory.
Tested on: domestic flies
Procedure details: insecticidal activity, laboratory test in gauze boxes
Type: in vivo
Condition summary: 2% solution in 5% aqueous glucose; observed in 48-72 hours

Hey, domestic flies data for CCOP(=NC(CO)C(O)c1ccc([N+](=O)[O-])cc1)(OCC)OCC (stereo not shown) [Example 2] : Death of flies, % Tests in laboratory came out at 84.7%

Item O=[N+]([O-])c1ccc(C(O)C(CCl)N=P(OC(CCl)c2ccccc2)(OC(CCl)c2ccccc2)OC(CCl)c2ccccc2)cc1 (stereo not shown) [Example 8] ; assay system domestic flies; Death of flies, % Tests in laboratory reported as 84.3%

// molecule CC(C)OP(=NC(CO)C(O)c1ccc([N+](=O)[O-])cc1)(OC(C)C)OC(C)C (stereo not shown) [Example 3] , assay domestic flies, Death of flies, % Tests in laboratory value: 82.0%

Log: domestic flies, molecule CCCOP(=NC(CCl)C(Cl)c1ccc([N+](=O)[O-])cc1)(OCCC)OCCC (stereo not shown) [Example 11] , Death of flies, % Tests in laboratory = 89.0%

The molecule CCCOP(=NC(CCl)C(O)c1ccc([N+](=O)[O-])cc1)(OCCC)OCCC (stereo not shown) [Example 5] on domestic flies: Death of flies, % Tests in laboratory was 94.5%

Bench note, domestic flies: O=[N+]([O-])c1ccc(C(O)C(CO)N=P(OC(CCl)c2ccccc2)(OC(CCl)c2ccccc2)OC(CCl)c2ccccc2)cc1 (stereo not shown) [Example 4] , Death of flies, % Tests in laboratory reads 73.4%

Value (Death of flies, % Tests in laboratory, domestic flies) for record COP(=NC(CO)C(O)c1ccc([N+](=O)[O-])cc1)(OC)OC (stereo not shown) [Example 1] = 89.1%

* * *

Tested on: domestic flies
Procedure details: insecticidal activity, full-scale (large-scale) test in premises
Assay type: in vivo
Condition summary: 2% solution, 2-3 dishes per 20 m²; 72 hours
Value type: Death of flies, % Tests in large-scale (%)
Report as a plain number; the unit % is understood.

Summary for this molecule, O=[N+]([O-])c1ccc(C(O)C(CO)N=P(OC(CCl)c2ccccc2)(OC(CCl)c2ccccc2)OC(CCl)c2ccccc2)cc1 (stereo not drawn) : Death of flies, % Tests in large-scale is 75.0

Consider CCOP(=NC(CCl)C(Cl)c1ccc([N+](=O)[O-])cc1)(OCC)OCC (stereo not drawn) . Its measured Death of flies, % Tests in large-scale is 88.0

COP(=O)(OC)C(O)C(Cl)(Cl)Cl (stereo not drawn) [reference compound] has a reported Death of flies, % Tests in large-scale of 88.0

Kindly note the recorded Death of flies, % Tests in large-scale for CCOP(=NC(CO)C(O)c1ccc([N+](=O)[O-])cc1)(OCC)OCC (stereo not drawn) , which is 83.0

Summary for this molecule, O=[N+]([O-])c1ccc(C(O)C(CCl)N=P(OC(CCl)c2ccccc2)(OC(CCl)c2ccccc2)OC(CCl)c2ccccc2)cc1 (stereo not drawn) : Death of flies, % Tests in large-scale is 84.0

Entry CCCCOP(=NC(CCl)C(Cl)c1ccc([N+](=O)[O-])cc1)(OCCCC)OCCCC (stereo not drawn) ; Death of flies, % Tests in large-scale = 91.0

Just so you know, measured Death of flies, % Tests in large-scale for COP(=NC(CO)C(O)c1ccc([N+](=O)[O-])cc1)(OC)OC (stereo not drawn) came out at 87.0

Documented Death of flies, % Tests in large-scale of CC(C)OP(=NC(CCl)C(Cl)c1ccc([N+](=O)[O-])cc1)(OC(C)C)OC(C)C (stereo not drawn) : 90.0

Short answer for CC(C)OP(=NC(CCl)C(O)c1ccc([N+](=O)[O-])cc1)(OC(C)C)OC(C)C (stereo not drawn) : Death of flies, % Tests in large-scale was 89.0

Recorded Death of flies, % Tests in large-scale (molecule CCCCOP(=NC(CCl)C(O)c1ccc([N+](=O)[O-])cc1)(OCCCC)OCCCC (stereo not drawn) ): 96.8

The molecule listed as COP(=NC(CCl)C(Cl)c1ccc([N+](=O)[O-])cc1)(OC)OC (stereo not drawn) has a reported Death of flies, % Tests in large-scale of 83.0

Death of flies, % Tests in large-scale in this record for CCCOP(=NC(CCl)C(Cl)c1ccc([N+](=O)[O-])cc1)(OCCC)OCCC (stereo not drawn) : 89.0

The value of Death of flies, % Tests in large-scale measured for the molecule CC(C)OP(=NC(CO)C(O)c1ccc([N+](=O)[O-])cc1)(OC(C)C)OC(C)C (stereo not drawn) turned out to be 80.0

Entry O=[N+]([O-])c1ccc(C(Cl)C(CCl)N=P(OC(CCl)c2ccccc2)(OC(CCl)c2ccccc2)OC(CCl)c2ccccc2)cc1 (stereo not drawn) ; Death of flies, % Tests in large-scale = 70.0

Record CCCOP(=NC(CCl)C(O)c1ccc([N+](=O)[O-])cc1)(OCCC)OCCC (stereo not drawn) . Reported Death of flies, % Tests in large-scale: 93.0
